Cited source: the supplement of paper PMC6555819

# System: RARb homodimer (NR concentration 270 nM)
# experiment-description: PBM binding z-score (relative to random genomic background probes); higher = stronger binding; sequences stand for … in GC…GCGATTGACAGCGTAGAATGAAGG
Each record's class is read off its PBM binding z-score using these ranges: LOW (below 2), MEDIUM (2 to below 3), HIGH (3 or more)

Hey, which category is CAAACTAGGTCACAGAGGTCAAAGTGCGTGCGTA in, do you know?
HIGH

Now try CCTATTCGTTGACCATAAGGGCAACCGAAGCTCG .
MEDIUM

Now try CCTACTGGGCCTAAAAGGTCATTGATGCCGATAA .
HIGH

Now try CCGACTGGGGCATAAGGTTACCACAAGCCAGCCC .
LOW

Now try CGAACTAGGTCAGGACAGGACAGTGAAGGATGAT .
MEDIUM

Now try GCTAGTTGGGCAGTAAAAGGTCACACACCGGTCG .
HIGH

Now try ACTAGCAGGCCTAGGGTCACTCAAGATTAGTCCG .
MEDIUM

Now try GCTTGCGGGTCAAAGGTTATAGCATGAATAGAAT .
MEDIUM

Now try ATCTCTAGGTACCAAGTTCAGTGAAAGAGAGGAC .
LOW

Now try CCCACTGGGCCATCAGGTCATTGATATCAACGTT .
MEDIUM

Now try CGTCCAAGGTCAATGCTAGGTCAGCGAAAGCATT .
HIGH

Now try CCTTACGGGTCACTGAAAGGTTATAGCATTTGGA .
HIGH

Now try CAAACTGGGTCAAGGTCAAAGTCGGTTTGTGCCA .
HIGH

Now try ATACCAAGATGATCGTGAGGTCGTTGATACTAAC .
LOW

Now try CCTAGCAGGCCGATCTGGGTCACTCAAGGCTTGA .
LOW

Now try CGAACTAGGTCATTGACATGACAGTGAATAGTAA .
MEDIUM

Now try CTTACAGGGTCAGCTAGGCCAGAGTAGGGACGGC .
HIGH

Now try CTCGAAAGGTCGTGCTCAGCTGAGTATACCAAAC .
MEDIUM

Now try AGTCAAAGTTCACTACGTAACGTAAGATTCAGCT .
HIGH

Now try TCTAGCAGGCCAGAGGGTCAATCAAGAGGTACGG .
MEDIUM

Now try TAGCCTAGGTCATGTGGGCCAGTATAGTGTCGGC .
HIGH

Now try AGAATGAGGCTAAGATCAGGGAAACAGAATACAT .
LOW

Now try TCTAGTTGGTCAAAGGGCACACACTCGAAATGCG .
MEDIUM

Now try TCATATAGGTTAATGCTAGGTGAAAGTCCGATCT .
LOW

Now try TCTGCTAGGTCAACGATGGTCAGCTGATCTGCTA .
HIGH

Now try TGAATTAGGTTAAAGATCAGGGAACGTGGCGTCG .
LOW

Now try CCTTACGGGTCAAGGTTAGAGCACGGGTGGTACG .
HIGH

Now try CCGAGTAGGTTAGGGGGCATTCAGGCAACGGTGA .
MEDIUM

Now try ACAGACAGGTGAGTGAAGGTTACTCAGCTGGACG .
LOW

Now try GCATATAGGTAATACAAGGTGGAAGTCCGATTGT .
LOW

Now try TCATATAGGTAAAAGCTGAAAGTCGGTGTGGTAA .
LOW

Now try CGTCCAAGGCCAATGCTAGGTCAGTGAAAGCATT .
MEDIUM

Now try ATAAGTAGGTTAGCTGGGGTCATTCAGACTAGGC .
HIGH

Now try CCTAGCAGGCCAGGGCCACTCAAGCATTTCGCTT .
LOW

Now try TCATATAGGTAAAAGCTAGGTGAAAGTCCGATCT .
LOW

Now try AACGAAAGGTCGTGAGGTGAGTATACAGAAAGGC .
HIGH

Now try TCTCGGAGGACACGCAGGTCAGAGCTTTCCAGAG .
MEDIUM

Now try GCTTGTAGATCAAGGCTAAGAAAGACTAAGCTAA .
LOW

Now try CAAACTAGGTCACAGAGGTAAAAGTCCGTGCGTA .
HIGH

Now try ACTATTAGTGGACTTAGGGCAACCGATACGACGC .
LOW

Now try TAGCCTAGGTGATGCGGGCCAGTATAGTGTCGGC .
LOW

Now try ATAATGAGGTTATTAAGATCAGGGAATTGCGGTC .
LOW

Now try ACTAGCAGGCCAAGGGTCACTCGAGATTAGTCCG .
HIGH

Now try TCATACAGGTAAAGGTGAAAGTCGAACGATATGA .
LOW

Now try TATCGGAGGACACGAAAGGTCAGAGCTCGACATC .
HIGH

Now try GCTTGTAGATCAAGGTTAAGAACGACTAAGCTAA .
LOW

Now try CCTATTAGTTGACCATAAGTGCAACCGAAGCTCG .
LOW

----------
# Test system: VDR:RXRa (NR concentration 270 nM, RXRa partner concentration 90 nM)
# experiment-description: PBM binding z-score (relative to random genomic background probes); higher = stronger binding; sequences stand for … in GC…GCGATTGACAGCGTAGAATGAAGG
outcome-measure: PBM binding z-score
The reply should be a number, written without any unit.

Would you kindly share the measured PBM binding z-score for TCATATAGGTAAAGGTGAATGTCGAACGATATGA ?
0.919

Now try CGTCCAAGGTCAGCAGATCAGTGAAAGCGACGTG .
2.37

Now try AGTCGAAGTTCATCTAGGTAACGTAAGATATGCT .
3.51

Now try ATCTCTAGGTAACCAAGTTTAGTGAATGCCGAAC .
1.55

Now try ACCTCTAGGTAACAAGTTCAGTGAAAGAGAGGAC .
1.59

Now try CGAACGAGGGCATGAGTTGATTGCAAATGCCGAT .
1.66

Now try TAGCCTAGGTCACTCAGGGGCCAGTATAGAAAGC .
2.42

Now try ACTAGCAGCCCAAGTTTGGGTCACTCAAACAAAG .
0.327

Now try ATCTCTAGGTAAAGATAGGTCAGTGAATGCAAAT .
1.13

Now try CCTACTGGGCCATCCGGTCATTGATATCAACGTT .
0.0642

Now try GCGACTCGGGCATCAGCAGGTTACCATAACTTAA .
-0.42

Now try AGAATGAGCTTAAGATCAGGGAAACAGAATACAT .
-0.396

Now try ATTAGTTGGTCAGCTGAGGTCACACACAATTCGG .
4.76

Now try ACTAGCAGGCCAAGTTTGGGTCTCTCAAACAAAG .
-0.766

Now try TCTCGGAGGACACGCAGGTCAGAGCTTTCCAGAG .
1.58

Now try CGTCCAAGGTCATAGGAGGTCTGTGAAGACAGAT .
4.72

Now try GCTTGTAGTTCAAGGTTAAGAAAGACTAAGCTAA .
1.46

Now try AGTCAAAGTTCGCTAGGTAACGTAAGATTCAGCT .
0.489

Now try TCAGACAGGTGTAGGTAACTCAGGTACGCAGTCG .
0.89

Now try AGAGTGAGGTTATACGTAGATCAGGGAAGAAAGT .
1.6

Now try CGAACTAGGTCATTGACCGGACAGTGAATAGTAA .
1.96

Now try AGAACGATGGCAATGAGTTGATAGCACGGGTGGC .
0.528

Now try CCTGCTAGGTCAATGCTCAGCTAAAGCAGCTCGC .
0.598

Now try ATCGAAAGGTCGAGGTGAGTATCGAGAAAGGGAA .
2.57

Now try ATATGTAGGTTTGCTGGGGTCATTCAGACTAGGC .
5.56

Now try TCTCGCAGGACACGAAAGGTCAGAGCTCGACATC .
2.89

Now try CGAACTAGGTCAAGAGGTCAAAGTCCGCTTCCCG .
6.13

Now try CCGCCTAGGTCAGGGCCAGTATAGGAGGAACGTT .
0.294

Now try GCATATAGGGAATACAAGGTGAAAGTCCGATTGT .
0.0593

Now try TCTTGTAGATCAAGCAGGTTCAGAAAGCCTGAGT .
1.93

Now try CCTCGGAGGACAACAGGAGGTCAGAGCGGCCAGA .
2.92

Now try ATCTCTAGGTAAAAGTTGAGTGAATCCCGAGGAT .
-0.00666

Now try ATCGAAAGGTCGACGAGGTGAGTTTACACCGTTT .
5.25

Now try TCTTGTAGATCAAAGGTTAAGAAAGCCGAAGCCT .
1.37

Now try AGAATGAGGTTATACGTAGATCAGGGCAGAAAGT .
1.67

Now try CTCGAAAGGTCGTGCTCAGGTGAGCATACCAAAC .
3.27

Now try TTACCAAGGTGAAAGCTCGTTGATGCACGCCTTG .
-0.288

Now try GCAGACAGGTGAAACGCAGGTAACTAAGGGTGGC .
-0.407

Now try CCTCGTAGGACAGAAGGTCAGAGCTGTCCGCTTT .
1.13

Now try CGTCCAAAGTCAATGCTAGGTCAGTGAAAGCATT .
0.457

Now try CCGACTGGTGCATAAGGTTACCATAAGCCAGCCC .
0.347

Now try GCTGCTAGGTCAACTGACGGTCAGCTAAAGCTCG .
1.88

Now try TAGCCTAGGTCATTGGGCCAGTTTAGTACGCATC .
2.37

Now try TCATATACGTAAAGGTGAAAGTCGAACGATATGA .
1.05

Now try AGTCAAAGTTCAGGACCAGGTAACGTAAAGCACG .
2.41

Now try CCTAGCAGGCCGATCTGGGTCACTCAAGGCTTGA .
0.114

Now try AATACAGGGTCTCTAGGCCAGAGTAGGTACGAAT .
-0.299

Now try CATACAGGGTCAGCTAGGCCAGAGGAGGGACGGC .
3.53

Now try CGTCAAAGTTCAACTAAGGTAACGTACAGCACGC .
4.64

Now try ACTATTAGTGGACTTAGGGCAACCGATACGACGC .
0.119

Now try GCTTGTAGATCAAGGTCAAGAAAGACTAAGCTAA .
2.67
